Experiment: APR_HepG2_NuclearSize_72hr: Apredica 72-hour HepG2 Assay for Nuclear Size (AID 2282925)
Conditions: high-content imaging, actives raise or lower the signal
Activity calls are given as the source filed them. How the source made its calls: active means hit-call score of the fitted dose curve at least 0.9, where 1 is the maximum; inactive means score below 0.9.
RECORDED_ENDPOINT: outcome

COMPOUND: COC(=O)c1c(Cl)nn(C)c1S(=O)(=O)NC(=O)Nc1nc(OC)cc(OC)n1
RESULT: inactive
--
COMPOUND: O=C(O)C1(C(=O)Nc2ccc(Cl)cc2Cl)CC1
RESULT: inactive
--
COMPOUND: C[C@]12C[C@H](O)[C@H]3[C@@H](CCC4=CC(=O)CC[C@@]43C)[C@@H]1CC[C@@H]2C(=O)CO
RESULT: inactive
--
COMPOUND: CCCN(CCC)C(=O)SCC
RESULT: inactive
--
COMPOUND: COC(=O)c1cccc(C)c1S(=O)(=O)NC(=O)Nc1nc(OCC(F)(F)F)nc(N(C)C)n1
RESULT: inactive
--
COMPOUND: COC(=O)CSc1cc(N=c2sc(=O)n3n2CCCC3)c(F)cc1Cl
RESULT: inactive
--
COMPOUND: CCCCOCCOCCOCc1cc2c(cc1CCC)OCO2
RESULT: inactive
--
COMPOUND: CCCCC(CC)CN1C(=O)C2C3C=CC(C3)C2C1=O (stereo unspecified)
RESULT: inactive
--
COMPOUND: OB(O)O
RESULT: inactive
--
COMPOUND: COc1c(Cl)ccc(Cl)c1C(=O)O
RESULT: inactive
--
COMPOUND: CC(C)(C)[C@@H](O)[C@@H](Cc1ccc(Cl)cc1)n1cncn1
RESULT: inactive

###

Assay: CCTE_Simmons_MITO_basal_resp_rate: CCTE's HepG2 Seahorse XF Respirometric Screening Assay at Basal Respiratory State, Simmons Lab (AID 2284001)
Conditions: actives raise or lower the signal
Calls of active or inactive are those of the source. Rule for the calls: active = hit-call score of the fitted dose curve at least 0.9, where 1 is the maximum; inactive = score below 0.9.
Possible outcomes: active, inactive

MOLECULE: CCCCC(CC)COC(=O)c1ccccc1C(=O)O (stereo not drawn)
CLASSIFICATION: active
//
MOLECULE: CC(C)CCCCCCc1ccc(O)cc1
CLASSIFICATION: active
//
MOLECULE: CCCCC(CC)CN1C(=O)C2C3C=CC(C3)C2C1=O (stereo not drawn)
CLASSIFICATION: active
//
MOLECULE: O=C(Nc1ccc([N+](=O)[O-])cc1Cl)c1cc(Cl)ccc1O
CLASSIFICATION: active
//
MOLECULE: CCOC(=O)NCCOc1ccc(Oc2ccccc2)cc1
CLASSIFICATION: active
//
MOLECULE: CCCCOC(=O)C(C)Oc1ccc(Oc2ccc(C(F)(F)F)cn2)cc1 (stereo not drawn)
CLASSIFICATION: inactive
//
MOLECULE: Oc1ccc(C(c2ccc(O)cc2)C(Cl)(Cl)Cl)cc1
CLASSIFICATION: active
//
MOLECULE: C[C@]12C[C@H](O)[C@H]3[C@@H](CCC4=CC(=O)CC[C@@]43C)[C@@H]1CC[C@@H]2C(=O)CO
CLASSIFICATION: active

###

Experiment: CCTE_Mundy_HCI_hN2_NOG_NeuriteLength: CCTE's Neurite Outgrowth Assay in human hN2 cells for Neurite Length, Mundy Lab (AID 2284220)
Inconclusive results are not listed. Active and inactive are the calls of the source. The calls were made as follows: active = hit-call score of the fitted dose curve at least 0.9, where 1 is the maximum; inconclusive = response in the unintended direction; inactive = score below 0.9.
Possible outcomes: 1 = active, 0 = inactive

COMPOUND: CC1(C)C(C=C(Cl)Cl)C1C(=O)OCc1cccc(Oc2ccccc2)c1 (centres undefined)
CLASSIFICATION: 0

COMPOUND: S=C([S-])NCCNC(=S)[S-].[Mn+2]
CLASSIFICATION: 0

COMPOUND: O=C(O)c1ccccc1
CLASSIFICATION: 0

COMPOUND: CC(C)(c1ccc(O)cc1)c1ccc(O)cc1
CLASSIFICATION: 1
